# experiment: Volatilization from stainless steel cylinder (flashbar); HPLC analysis of the condensation aerosol
# Assay type: physicochemical
# protocolConditions: drug dip coated on stainless steel flashbar, capacitors 20.5 volts, heated to about 400° C. within about 200 milliseconds, 15 L/min room air
Purity of the aerosol (purity analysis by HPLC): recorded values
Report the figure in % without appending any unit label.

{"columns": ["compound", "measurementUnit", "quantitativeReadout"],
 "data": [
  ["CC(C)(C)NCC(O)c1cc(O)cc(O)c1 (stereo not drawn)", "%", 99.3]
]}

QUERY: Could you share which Purity of the aerosol (purity analysis by HPLC) value was measured for CC(C)NCC(O)c1cc(O)cc(O)c1 (stereo not drawn) ?
RESULT: 99.1

QUERY: Could you share which Purity of the aerosol (purity analysis by HPLC) value was measured for CCCC1O[C@@H]2C[C@H]3[C@@H]4CCC5=CC(=O)C=C[C@]5(C)[C@H]4[C@@H](O)C[C@]3(C)[C@]2(C(=O)CO)O1 (stereo partly drawn) [budesonide] ?
RESULT: 70.5

QUERY: Could you share which Purity of the aerosol (purity analysis by HPLC) value was measured for CC(C)(C)NCC(O)c1ccc(O)c(CO)c1 (stereo not drawn) ?
RESULT: 94.4

###

Purity of the aerosol (purity analysis): recorded values
# experiment: Volatilization Using Stainless Steel Foil; HPLC analysis of the condensation aerosol
# Type: physicochemical
# protocolConditions: single drug on stainless steel foil substrate (5 cm^2), film thickness about 0.4-1.2 μm, capacitor charged to 15 V
Report the figure in % without appending any unit label.

Look over these answered cases.
{"columns": ["compound", "Purity of the aerosol (purity analysis) (%)"],
 "data": [
  ["CC(C)Cn1c(=O)n(C)c(=O)c2[nH]cnc21 [IBMX]", 99.9],
  ["CCCn1c(=O)c2[nH]c(C3CCCC3)nc2n(CCC)c1=O [CPX]", 99.8],
  ["CCC(=O)O[C@]1(C(=O)SCF)[C@H](C)C[C@H]2[C@@H]3C[C@H](F)C4=CC(=O)C=C[C@]4(C)[C@@]3(F)[C@@H](O)C[C@@]21C [fluticasone propionate]", 91.6]
]}

Here is another compound to look at.
QUERY: Could you share which Purity of the aerosol (purity analysis) value was measured for CC(C)C(=O)OCC(=O)[C@@]12O[C@H](C3CCCCC3)O[C@@H]1C[C@H]1[C@@H]3CCC4=CC(=O)C=C[C@]4(C)[C@H]3[C@@H](O)C[C@@]12C [ciclesonide] ?
RESULT: 99.03
